- System Under Test: UniProtKB P28222
- Sequence (P28222 whole entry, species assumed): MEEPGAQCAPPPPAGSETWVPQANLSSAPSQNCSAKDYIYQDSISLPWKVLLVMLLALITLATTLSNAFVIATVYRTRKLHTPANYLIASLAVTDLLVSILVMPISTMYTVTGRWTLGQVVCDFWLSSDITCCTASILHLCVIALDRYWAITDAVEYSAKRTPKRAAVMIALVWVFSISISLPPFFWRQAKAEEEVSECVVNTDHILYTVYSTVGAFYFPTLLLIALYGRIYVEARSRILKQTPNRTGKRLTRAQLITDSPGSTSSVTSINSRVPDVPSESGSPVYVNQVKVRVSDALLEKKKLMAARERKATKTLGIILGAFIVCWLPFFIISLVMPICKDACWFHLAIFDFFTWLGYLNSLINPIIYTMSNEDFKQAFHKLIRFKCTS
- Assay Explanation: Radioligand binding, 5-HT1B
- Condition Set: read-out: Binding affinity Ki (nM), 5-HT1B; radioligand binding
Value Kind: Ki (nM)
One number for each entry, in nM.

query: Entry CNc1nc2cc(OCCCCN3CCN(c4cccc(Cl)c4Cl)CC3)ccc2s1 has what Ki?
result: 1400

====

- System Under Test: D2L receptors (Homo sapiens, UniProt P14416)
- Sequence (P14416 whole entry): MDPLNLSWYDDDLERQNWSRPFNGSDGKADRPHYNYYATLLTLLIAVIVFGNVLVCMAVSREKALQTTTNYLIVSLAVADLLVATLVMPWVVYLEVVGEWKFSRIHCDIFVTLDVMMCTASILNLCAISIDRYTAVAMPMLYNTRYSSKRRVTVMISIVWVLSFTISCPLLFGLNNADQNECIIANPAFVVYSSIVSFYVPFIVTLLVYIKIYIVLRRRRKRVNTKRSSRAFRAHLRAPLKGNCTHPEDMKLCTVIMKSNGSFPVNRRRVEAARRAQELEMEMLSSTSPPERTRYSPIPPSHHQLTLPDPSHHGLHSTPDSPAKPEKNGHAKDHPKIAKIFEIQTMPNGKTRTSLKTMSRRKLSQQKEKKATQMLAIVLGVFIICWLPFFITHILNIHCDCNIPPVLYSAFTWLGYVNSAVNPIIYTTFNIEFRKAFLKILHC
- Assay Explanation: D2R β-arrestin-2 recruitment Tango assay
- Type: cell-based
- Condition Set: HTLA, read-out: β-arrestin Emax (%)
Value Kind: Emax (%)
One number for each entry, in %.

Molecule: Oc1c(CN2CCN(c3ccccn3)CC2)cc(Cl)c2cccnc12 [Compound 59, reference compound]
Value Kind: Emax
Numeric Readout: 67
//
Molecule: Cc1nc2ccc(OCCCCN3CCC(c4cccc(Cl)c4Cl)CC3)cc2s1
Value Kind: Emax
Numeric Readout: 24
//
Molecule: CNc1nc2cc(OCCCCN3CCN(c4cccc5c4OCCN5)CC3)ccc2s1
Value Kind: Emax
Numeric Readout: 29
//
Molecule: Cc1nc2cc(OCCCCN3CCN(c4cccc(Cl)c4Cl)CC3)ccc2s1
Value Kind: Emax
Numeric Readout: 23

Quick request: Emax for each listed item, please.
1. O=c1[nH]c2cc(OCCCCN3CCN(c4cccc(Cl)c4Cl)CC3)ccc2s1
2. COc1ccccc1N1CCN(CCCCOc2ccc3sc(C)nc3c2)CC1
3. Cc1nc2cc(OCCCCN3CCC(c4cccc(Cl)c4Cl)CC3)ccc2s1
4. Cc1nc2ccc(OCCCCN3CCN(c4cccc(Cl)c4Cl)CC3)cc2s1
5. Cc1nc2cc(OCCCCN3CCN(c4cccc5[nH]c(=O)oc45)CC3)ccc2s1

result:
[59, 25, 31, 22, 88]

====

- System Under Test: 5-HT2A (Homo sapiens)
- Assay Explanation: Radioligand binding, 5-HT2A
- Condition Set: read-out: Binding affinity Ki (nM), 5-HT2A; radioligand binding
Value Kind: Ki
Show the value, then the unit it is measured in.

query: So what does the record say about Ki for CNc1nc2cc(OCCCCN3CCN(c4cccc(Cl)c4Cl)CC3)ccc2s1 ?
result: 72 nM

====

- System Under Test: UniProt:P14416
- Assay Explanation: D2R Gi/o-mediated cAMP inhibition assay
- Format: cell-based
- Condition Set: HEK-293T, read-out: cAMP Emax (%), HEK293T cells, GloSensor-22F; normalized to maximum cAMP inhibition by quinpirole (100%)
Can you tell me Emax for the items I'm about to list?
One number for each entry, in %.

Molecule: Clc1nc2cc(OCCCCN3CCN(c4cccc(Cl)c4Cl)CC3)ccc2s1 [Compound 6]
Numeric Readout: 50
--
Molecule: CNc1nc2cc(OCCCCN3CCN(c4cccc5c4OCCN5)CC3)ccc2s1 [Compound 56]
Numeric Readout: 49

Please supply Emax for each of the following items, keeping them in order.
1. CC(C)c1nc2cc(OCCCCN3CCN(c4cccc(Cl)c4Cl)CC3)ccc2s1 [Compound 19]
2. Cc1nc2cc(OCCCCN3CCN(c4cccc(Cl)c4Cl)CC3)ccc2s1 [Compound 1]
3. Cc1nc2ccc(OCCCCN3CCC(c4cccc(Cl)c4Cl)CC3)cc2s1 [Compound 58]
4. CC(C)c1nc2cc(OCCCCN3CCN(c4cccc5c4OCCN5)CC3)ccc2s1 [Compound 51]
5. CCc1nc2cc(OCCCCN3CCN(c4cccc5ccc(C)nc45)CC3)ccc2s1 [Compound 48]

result:
[33, 50, 56, 48, 33]

====

- System Under Test: 5-HT2B (Homo sapiens)
- Sequence (P41595 whole entry, species assumed): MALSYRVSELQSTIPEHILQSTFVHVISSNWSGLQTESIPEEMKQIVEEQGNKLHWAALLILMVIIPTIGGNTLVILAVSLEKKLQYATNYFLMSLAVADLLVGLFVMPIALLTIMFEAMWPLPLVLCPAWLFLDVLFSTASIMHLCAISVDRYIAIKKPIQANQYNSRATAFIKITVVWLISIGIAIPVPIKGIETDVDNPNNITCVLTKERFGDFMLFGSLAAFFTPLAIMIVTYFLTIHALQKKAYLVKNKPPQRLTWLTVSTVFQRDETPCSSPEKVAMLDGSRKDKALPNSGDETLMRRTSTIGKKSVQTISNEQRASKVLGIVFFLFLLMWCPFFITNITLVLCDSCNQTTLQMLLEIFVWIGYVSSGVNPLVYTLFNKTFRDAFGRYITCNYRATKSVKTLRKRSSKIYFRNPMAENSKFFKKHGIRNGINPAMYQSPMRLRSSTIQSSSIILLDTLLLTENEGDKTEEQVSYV
- Assay Explanation: Radioligand binding, 5-HT2B
- Condition Set: read-out: Binding affinity Ki (nM), 5-HT2B
Value Kind: Ki (nM)
Answers are plain numbers, in nM.

query: What does the record list as Ki for CNc1nc2cc(OCCCCN3CCN(c4cccc(Cl)c4Cl)CC3)ccc2s1 ?
result: 12

====

- System Under Test: hD2L receptors (Homo sapiens)
- Sequence (P14416 whole entry): as the sequence (P14416 whole entry) above
- Assay Explanation: D2R Gi/o-mediated cAMP inhibition assay
- Assay type: cell-based
- Condition Set: HEK-293T, read-out: cAMP Emax (%), HEK293T cells, GloSensor-22F; normalized to maximum cAMP inhibition by quinpirole (100%)
Value Kind: Emax (%)
One number for each entry, in %.

Molecule: CC(C)c1nc2cc(OCCCCN3CCC(c4cccc(Cl)c4Cl)CC3)ccc2s1 [Compound 47]
Value Kind: Emax
Numeric Readout: 33

query: Which Emax reading was recorded for the molecule CCc1nc2cc(OCCCCN3CCN(c4cccc(Cl)c4Cl)CC3)ccc2s1 [Compound 18] ?
result: 43

====

Target protein (sequence): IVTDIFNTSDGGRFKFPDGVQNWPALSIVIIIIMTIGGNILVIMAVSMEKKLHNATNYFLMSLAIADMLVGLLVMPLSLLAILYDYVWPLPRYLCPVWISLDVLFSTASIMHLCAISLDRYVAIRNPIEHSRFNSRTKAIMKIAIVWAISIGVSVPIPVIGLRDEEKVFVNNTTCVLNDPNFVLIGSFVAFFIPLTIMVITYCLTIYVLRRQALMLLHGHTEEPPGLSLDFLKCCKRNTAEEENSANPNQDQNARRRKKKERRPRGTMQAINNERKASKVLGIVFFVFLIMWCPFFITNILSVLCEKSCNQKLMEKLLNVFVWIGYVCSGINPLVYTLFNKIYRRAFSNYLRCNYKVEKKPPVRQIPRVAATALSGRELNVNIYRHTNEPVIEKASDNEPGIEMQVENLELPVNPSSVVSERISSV
Value Kind: Ki (nM)
Answers are plain numbers, in nM.

query: Fill in the blank: the reported Ki of Cc1ccc2cccc(N3CCN(CCCCOc4ccc5sc(C(C)C)nc5c4)CC3)c2n1 is ____.
result: 140

====

- System Under Test: D2L receptors (Homo sapiens, UniProt P14416)
- Assay Explanation: D2R β-arrestin-2 recruitment Tango assay
- Type: cell-based
- Condition Set: β-arrestin EC50 (nM), Tango assay, HTLA cells
Value Kind: log10 EC50 (log10 of the value in nM)
Values are log10 of EC50 in nM.

Take a look at these entries with their results.
Sample Smiles: Cc1nc2cc(OCCCCN3CCN(c4cccc(Cl)c4Cl)CC3)ccc2s1
System Under Test: D2L receptors (Homo sapiens, UniProt P14416)
Numeric Readout: 1.11

Sample Smiles: CCc1nc2cc(OCCCCN3CCN(c4cccc5c4OCCN5)CC3)ccc2s1
System Under Test: D2L receptors (Homo sapiens, UniProt P14416)
Numeric Readout: 0.81

Sample Smiles: O=c1[nH]c2cc(OCCCCN3CCN(c4cccc(Cl)c4Cl)CC3)ccc2s1
System Under Test: D2L receptors (Homo sapiens, UniProt P14416)
Numeric Readout: 0.41

Sample Smiles: Clc1nc2cc(OCCCCN3CCN(c4cccc(Cl)c4Cl)CC3)ccc2s1
System Under Test: D2L receptors (Homo sapiens, UniProt P14416)
Numeric Readout: 1.68

Sample Smiles: Cc1nc2ccc(OCCCCN3CCN(c4cccc(Cl)c4Cl)CC3)cc2s1
System Under Test: D2L receptors (Homo sapiens, UniProt P14416)
Numeric Readout: 1.88

Turning now to a further molecule:
query: Give D2L receptors (Homo sapiens, UniProt P14416) log10 EC50 for Cc1nc2cc(OCCCCN3CCN(c4cccc5c4OCCO5)CC3)ccc2s1
result: 0.56

====

- System Under Test: D2R (Homo sapiens, UniProt P14416)
- Sequence (P14416 whole entry): as the sequence (P14416 whole entry) above
- Assay Explanation: Radioligand binding, D2R
pKi: −log10 of the molar value.
Give true (1) when the value for pKi is at least 7. Give false (0) when it is less.

Sample Smiles: CC(C)c1nc2cc(OCCCCN3CCN(c4cccc5c4OCCO5)CC3)ccc2s1
System Under Test: D2R (Homo sapiens, UniProt P14416)
Assigned Class: true (1)
//
Sample Smiles: Cc1ccc2cccc(N3CCN(CCCCOc4ccc5sc(C(C)C)nc5c4)CC3)c2n1
System Under Test: D2R (Homo sapiens, UniProt P14416)
Assigned Class: true (1)

query: Check the entry CCc1nc2cc(OCCCCN3CCC(c4cccc(Cl)c4Cl)CC3)ccc2s1 : does pKi equal or exceed 7?
result: false (0)

====

- System Under Test: human D2Rlong (Homo sapiens, UniProt P14416)
- Sequence (P14416 whole entry): as the sequence (P14416 whole entry) above
- Assay Explanation: cell-based
Value Kind: pEC50
Give bare numbers, as −log10 of the molar value.

Sample Smiles: CC(C)c1nc2cc(OCCCCN3CCN(c4cccc5c4OCCO5)CC3)ccc2s1
pEC50: 8.34

Proceed to the following item.
query: // pEC50 lookup, key: Cc1nc2cc(OCCCCN3CCN(c4cccc(Cl)c4Cl)CC3)ccc2s1
result: 8.44

====

- System Under Test: D1R (Homo sapiens)
- Sequence (P21728 whole entry): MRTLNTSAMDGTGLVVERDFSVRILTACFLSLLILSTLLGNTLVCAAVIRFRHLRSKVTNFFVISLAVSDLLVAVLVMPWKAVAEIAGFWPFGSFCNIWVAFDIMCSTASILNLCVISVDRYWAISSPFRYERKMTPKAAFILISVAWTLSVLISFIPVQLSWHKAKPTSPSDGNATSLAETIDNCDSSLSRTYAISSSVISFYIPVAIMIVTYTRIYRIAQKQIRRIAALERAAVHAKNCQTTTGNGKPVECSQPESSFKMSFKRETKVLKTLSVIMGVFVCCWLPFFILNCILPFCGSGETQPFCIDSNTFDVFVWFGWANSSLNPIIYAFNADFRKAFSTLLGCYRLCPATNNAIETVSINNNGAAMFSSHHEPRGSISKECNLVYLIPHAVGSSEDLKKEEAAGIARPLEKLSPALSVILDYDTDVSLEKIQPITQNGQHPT
- Assay Explanation: Radioligand binding, D1R
Consider the following molecules; for each one, report its Ki.
Hey, just the number and the unit after it is fine.

These recorded examples may help you get a feel for the data.
Sample Smiles: Cc1ccc2cccc(N3CCN(CCCCOc4ccc5sc(C(C)C)nc5c4)CC3)c2n1
Ki: 2000 nM

Sample Smiles: CNc1nc2cc(OCCCCN3CCC(c4cccc(Cl)c4Cl)CC3)ccc2s1
Ki: 1100 nM

Sample Smiles: CC(C)c1nc2cc(OCCCCN3CCN(c4cccc5c4OCCO5)CC3)ccc2s1
Ki: 2000 nM

query: Can you look up the measured Ki of CCc1nc2cc(OCCCCN3CCC(c4cccc(Cl)c4Cl)CC3)ccc2s1 for me?
result: 1700 nM
